Assay: qHTS assay to identify small molecule antagonists of the sonic hedgehog signaling (Shh) pathway - cell viability counter screen (AID 1259367); note: nearly all actives have a fitted effect of over 55% in size
Conditions: NIH/3T3 Gli1-Luc viability, CellTiter-Fluor, 24 h; series mostly up to 92.4 µM
Inconclusive results are not listed. Active and inactive are the calls of the source. Calls come from the whole dose curve; as a rule, active = well fitted cell-killing curve with a large enough effect in the repeat runs; inconclusive = weak or mixed curves, or effect the other way; inactive = no such curve, though single readings can be large or run the other way.
Your response should consist of one outcome taken from true for active, false for inactive

1) CC(C)(CCl)C(=O)Cl
true
2) COc1nn(CSP(=S)(OC)OC)c(=O)s1
false
3) N#CCc1ccccc1
false
4) Oc1ccc(Cl)c(Cl)c1Cl
false
5) C[C@@H]1CC[C@H]2[C@@H](C)C(=O)O[C@@H]3O[C@@]4(C)CC[C@@H]1[C@]32OO4
false
6) CC(C)O.CC(C)O.OCCN(CCO)CCO.OCCN(CCO)CCO.[Ti]
false
7) N#C/C(N)=C(/N)C#N
false
8) O=[N+]([O-])c1ccccc1CCl
false

Q. For `CCCC(=O)Cl` , which call appears in the assay record?
A. false

Q. For CCCCC(CC)COP(=O)(Oc1ccccc1)Oc1ccccc1 (stereo not given) , which call appears in the assay record?
A. false

Q. For `C#CCOC(C(=O)OCCN(C)C)(c1ccccc1)c1ccccc1` , which call appears in the assay record?
A. false

====

Assay: qHTS assay for small molecule agonists of the antioxidant response element (ARE) signaling pathway - cell viability counter screen (AID 743203); note: nearly all actives have a fitted effect of over 55% in size
Settings: ARE-bla HepG2 viability, CellTiter-Glo luminescence, 16 h; series mostly up to 73.3 µM
Records with an inconclusive call do not appear. The source made the active and inactive calls. Calls follow the shape of the full dose curve.
Your response should consist of one outcome taken from t (active), f (inactive)

1. O=C(NC(=O)c1c(F)cccc1F)Nc1ccc(OC(F)(F)C(F)OC(F)(F)F)c(Cl)c1 (centres undefined)
f

Q. For `Nc1nc(N)nc(N)n1` , which call appears in the assay record?
A. f

Q. For `Cc1cc(=O)[nH]o1` , which call appears in the assay record?
A. f

Q. For `IC(I)=C(I)I` , which call appears in the assay record?
A. t

====

Molecular target: Voltage-gated inwardly rectifying potassium channel KCNH2 (Homo sapiens) (UniProt Q12809)
Sequence (Q12809 whole entry, looked up): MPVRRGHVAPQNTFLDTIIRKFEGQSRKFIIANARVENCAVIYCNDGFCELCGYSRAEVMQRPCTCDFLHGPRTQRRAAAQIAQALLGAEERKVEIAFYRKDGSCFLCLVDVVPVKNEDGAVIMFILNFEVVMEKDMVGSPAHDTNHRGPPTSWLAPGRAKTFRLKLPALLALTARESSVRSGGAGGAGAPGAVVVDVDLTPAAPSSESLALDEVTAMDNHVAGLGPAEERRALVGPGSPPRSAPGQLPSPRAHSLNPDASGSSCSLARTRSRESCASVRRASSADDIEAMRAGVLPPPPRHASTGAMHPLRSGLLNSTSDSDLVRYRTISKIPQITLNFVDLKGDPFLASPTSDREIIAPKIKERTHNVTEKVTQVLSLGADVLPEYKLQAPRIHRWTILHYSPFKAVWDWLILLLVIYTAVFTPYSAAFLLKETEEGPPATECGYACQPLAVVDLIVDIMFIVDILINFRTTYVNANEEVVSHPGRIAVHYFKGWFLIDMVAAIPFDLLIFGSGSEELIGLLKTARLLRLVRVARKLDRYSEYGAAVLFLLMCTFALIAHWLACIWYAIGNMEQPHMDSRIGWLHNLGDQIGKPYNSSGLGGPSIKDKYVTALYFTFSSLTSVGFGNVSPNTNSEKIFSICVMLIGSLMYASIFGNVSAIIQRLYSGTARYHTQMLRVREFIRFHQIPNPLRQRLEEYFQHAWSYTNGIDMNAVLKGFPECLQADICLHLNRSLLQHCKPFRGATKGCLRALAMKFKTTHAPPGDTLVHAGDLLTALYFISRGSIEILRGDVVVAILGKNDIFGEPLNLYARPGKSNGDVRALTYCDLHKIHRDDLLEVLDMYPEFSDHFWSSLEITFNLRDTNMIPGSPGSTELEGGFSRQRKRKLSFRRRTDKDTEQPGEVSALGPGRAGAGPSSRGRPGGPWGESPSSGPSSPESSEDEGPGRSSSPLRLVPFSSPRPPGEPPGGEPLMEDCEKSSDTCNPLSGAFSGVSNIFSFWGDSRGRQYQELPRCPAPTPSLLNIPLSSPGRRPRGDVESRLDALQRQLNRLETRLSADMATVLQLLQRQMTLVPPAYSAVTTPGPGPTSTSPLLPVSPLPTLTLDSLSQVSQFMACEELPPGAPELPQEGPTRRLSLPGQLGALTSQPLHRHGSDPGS
Experiment: Human Ether-a-go-go-Related Gene (hERG) channel small molecule antagonists: fluorescence cell-based qHTS assay (AID 1671200); note: nearly all actives have a fitted effect of over 50% in size
Conditions: hERG-U2OS cells, FluxOR thallium flux fluorescence; series mostly up to 76.8 µM
Results filed as inconclusive are left out. Activity calls are given as the source filed them. Calls come from the whole dose curve; as a rule, active = well fitted inhibition curve with a large enough effect in the repeat runs; inconclusive = weak or mixed curves; inactive = flat fitted curve, though single readings scatter.
Your response should consist of one outcome taken from active, inactive

1) C(=NC1CCCCC1)=NC1CCCCC1
inactive
2) C=CC(=O)OCCCCO
inactive
3) Cc1ccc(-c2c(Cl)nc(C#N)n2S(=O)(=O)N(C)C)cc1
inactive
4) COCCOCCO
inactive

Q. For `CCCCCCCCCC(=O)O[C@H]1CC[C@H]2[C@@H]3CCC4=CC(=O)CC[C@@H]4[C@H]3CC[C@]12C` , which call appears in the assay record?
A. inactive

Q. For `O=C(O)C(F)(F)C(F)(F)C(F)(F)C(F)(F)C(F)(F)C(F)(F)C(F)(F)C(F)(F)C(F)(F)F` , which call appears in the assay record?
A. inactive

Q. For `Cn1sc(Cl)cc1=O` , which call appears in the assay record?
A. inactive

Q. For COC(=O)C(C)N(C(=O)Cc1ccccc1)c1c(C)cccc1C (configuration not stated) , which call appears in the assay record?
A. inactive

Q. For CC(O)(CS(=O)(=O)c1ccc(F)cc1)C(=O)Nc1ccc(C#N)c(C(F)(F)F)c1 (configuration not stated) , which call appears in the assay record?
A. inactive

Q. For `CN(C)c1ccc(N(C)C)cc1` , which call appears in the assay record?
A. inactive

Q. For `C/C=C/C=O` , which call appears in the assay record?
A. inactive

Q. For CN1[C@@H]2CC[C@H]1CC(OC(=O)c1cc(Cl)cc(Cl)c1)C2 (some centres not stated) , which call appears in the assay record?
A. active

====

Test: qHTS assay to identify small molecule antagonists of the thyroid receptor (TR) signaling pathway (AID 743065); note: nearly all actives have a fitted effect of over 55% in size
Settings: GH3.TRE-Luc, T3-stimulated luciferase inhibition, 23.5 h; series mostly up to 70.3 µM
Results filed as inconclusive are left out. Activity calls are given as the source filed them. Calls come from the whole dose curve; as a rule, active = well fitted inhibition curve with a large enough effect in the repeat runs; inconclusive = weak or mixed curves; inactive = no such curve, though single readings can be large or run the other way.
Your response should consist of one outcome taken from active, inactive

1) O=S(=O)(Cl)c1ccccc1
inactive
2) CCCCCCCCOC(=O)c1ccc(C(=O)OCCCCCCCC)c(C(=O)OCCCCCCCC)c1
inactive
3) COP(=S)(Oc1cc(Cl)c(Br)cc1Cl)c1ccccc1 (stereo unspecified)
active
4) CN(N=O)c1ccc([N+](=O)[O-])cc1
inactive
5) Nc1nc(N)nc(N)n1
inactive
6) C=CCC1([C@H](C)CCC)C(=O)NC(=O)NC1=O
inactive

Q. For BrCC(Br)C1CCC(Br)C(Br)C1 (stereo unspecified) , which call appears in the assay record?
A. active

Q. For CN1C(=O)NC(=O)C(C)(C2=CCCCC2)C1=O (stereo unspecified) , which call appears in the assay record?
A. inactive

Q. For `C=CCCl` , which call appears in the assay record?
A. inactive

Q. For `O=C(C(Cl)(Cl)Cl)C(Cl)(Cl)Cl` , which call appears in the assay record?
A. inactive

Q. For `CCOC(=O)[C@]1(c2ccccc2)Oc2ccccc2[C@@H]1N` , which call appears in the assay record?
A. active

====

Experiment: qHTS assay for identifying genotoxic compounds that show differential cytotoxicity against isogenic chicken DT40 cell lines with known DNA damage response pathways - Rad54/Ku70 mutant cell line (AID 743015); note: nearly all actives have a fitted effect of over 60% in size
Conditions: DT40 Rad54/Ku70 mutant viability, CellTiter-Glo, 40 h; series mostly up to 66.8 µM
Records with an inconclusive call do not appear. Activity calls are given as the source filed them. Calls follow the shape of the dose curve; as a rule, active = well fitted cell-killing curve with a large enough effect in the repeat runs; inconclusive = weak or mixed curves; inactive = no such curve, though single readings can be large or run the other way.
Your response should consist of one outcome taken from 1 for active, -1 for inactive

Consider the worked cases shown below.
1) CCCCCCCCCC(=O)O[C@H]1CC[C@H]2[C@@H]3CCC4=CC(=O)CC[C@@H]4[C@H]3CC[C@]12C
-1
2) CCCCNP(N)(N)=S
-1

Q. For CC(C)N(CCC(C(N)=O)(c1ccccc1)c1ccccn1)C(C)C (centres undefined) , which call appears in the assay record?
A. -1

Q. For `CN1C[C@H](CNC(=O)OCc2ccccc2)C[C@@H]2c3cccc4c3c(cn4C)C[C@H]21` , which call appears in the assay record?
A. 1

Q. For `O=Cc1ccc(Cl)cc1Cl` , which call appears in the assay record?
A. -1

Q. For `CCBr` , which call appears in the assay record?
A. -1

Q. For `CCN(C)N=O` , which call appears in the assay record?
A. -1

Q. For `O=NN1CCCCCC1` , which call appears in the assay record?
A. -1

Q. For CN1C(=O)NC(=O)C(C)(C2=CCCCC2)C1=O (centres undefined) , which call appears in the assay record?
A. -1

Q. For `CCn1cc[n+](C)c1` , which call appears in the assay record?
A. -1

Q. For `BrCCCCBr` , which call appears in the assay record?
A. -1

Q. For `O=C(O)COc1ccc(Cl)cc1` , which call appears in the assay record?
A. -1

Q. For `CCOC(=O)[C@]1(c2ccccc2)Oc2ccccc2[C@@H]1N` , which call appears in the assay record?
A. 1

====

Test: qHTS assay for identifying genotoxic compounds that show differential cytotoxicity against isogenic chicken DT40 cell lines with known DNA damage response pathways - Rev3 mutant cell line (AID 743014); note: nearly all actives have a fitted effect of over 55% in size
Settings: chicken DT40 Rev3-/- viability, CellTiter-Glo, 40 h; series mostly up to 68.4 µM
Inconclusive results are not listed. The source made the active and inactive calls. Calls come from the whole dose curve; as a rule, active = well fitted cell-killing curve with a large enough effect in the repeat runs; inconclusive = weak or mixed curves, or effect the other way; inactive = no such curve, though single readings can be large or run the other way.
Your response should consist of one outcome taken from y = active, n = inactive

Q. For `O=C(C(Cl)(Cl)Cl)C(Cl)(Cl)Cl` , which call appears in the assay record?
A. n

====

Molecular target: Estrogen receptor (Homo sapiens)
Test: qHTS assay to identify small molecule agonists of the estrogen receptor alpha (ER-alpha) signaling pathway using the BG1 cell line (AID 743079); note: nearly all actives have a fitted effect of over 20% in size; note: potency is the fitted concentration of half-maximal effect
Settings: BG1Luc4E2 cells, ERE-luciferase agonist, 22 h; series mostly up to 70.3 µM
Inconclusive results are not listed. Calls of active or inactive are those of the source. The call rests on the fitted dose curve; in most records, active means well fitted activation curve with a large enough effect in the repeat runs; inconclusive means weak or mixed curves, or effect the other way; inactive means no such curve, though single readings can be large or run the other way.
outcome.measure: Potency

Example entries and their recorded answers appear below.
1) N#Cc1ccc(Cl)cc1
inactive
2) O=C(CBr)c1ccccc1
54.8 µM (active)
3) O=C(CCl)c1ccc(Cl)cc1Cl
inactive
4) OCCCBr
inactive
5) [O-][Cl+]O
inactive

Q. Which value of Potency has been reported for `Brc1ccccc1` in the records?
A. inactive

Q. Which value of Potency has been reported for `CCc1ccc(C(=O)NN(C(=O)c2cc(C)cc(C)c2)C(C)(C)C)cc1` in the records?
A. inactive

Q. Which value of Potency has been reported for `O=NN1CCCCCC1` in the records?
A. inactive

Q. Which value of Potency has been reported for `NC(=O)C(Cl)(Cl)Cl` in the records?
A. 68.9 µM (active)

Q. Which value of Potency has been reported for COC(=O)C(Br)CBr (configuration not stated) in the records?
A. inactive

Q. Which value of Potency has been reported for `CC[C@H]1C[C@H]2[C@@H]3CCC4=CC(=O)CC[C@@H]4[C@H]3CC[C@]2(C)[C@H]1O` in the records?
A. 10.6 µM (active)

Q. Which value of Potency has been reported for `Brc1ccc(Oc2ccccc2)cc1` in the records?
A. inactive

These data points were gathered from PubChem BioAssay (Tox21).
